meta.source: patent US9546164B2

Measured IC50 by item
- assay-target: hNav1.7 (Homo sapiens (Human))
- experimental-details: Tritiated sulfonamide competitive binding to membranes from cells expressing hNav1.7 and the β1 subunit
- recorded-conditions: read-out: Ligand Binding Assay; 100 pM [3H]compound, membranes with hNav1.7 and β1 subunit, 18 h, room temperature
Report field: quantity (unit follows the number).

Solved cases below.
CS(=O)(=O)NC(=O)c1cc(C2CC2)c(OC[C@H]2CCN(Cc3cc(Cl)cc(Cl)c3)C(=O)C2)cc1F (single isomer, unassigned)
210 nM
CCC(c1cc(Cl)cc(Cl)c1)N1CCC(COc2cc(F)c(C(=O)NS(C)(=O)=O)cc2C2CC2)CC1 (stereo not shown)
2.02 nM
C[C@@H](c1ccc(Cl)cc1Cl)N1CCC(C)(COc2cc(F)c(C(=O)NS(C)(=O)=O)cc2C2CC2)CC1
8.1 nM

Continue with the next molecule.
Can you share its IC50? I mean this molecule: C[C@H]1CC[C@@H](Oc2cc(F)c(C(=O)NS(=O)(=O)N3CCC3)cc2C2CC2)CN1Cc1ccc(F)cc1Cl 2.4 nM

* * *

- assay-target: UniProtKB Q14524
- Sequence (Q14524 whole entry): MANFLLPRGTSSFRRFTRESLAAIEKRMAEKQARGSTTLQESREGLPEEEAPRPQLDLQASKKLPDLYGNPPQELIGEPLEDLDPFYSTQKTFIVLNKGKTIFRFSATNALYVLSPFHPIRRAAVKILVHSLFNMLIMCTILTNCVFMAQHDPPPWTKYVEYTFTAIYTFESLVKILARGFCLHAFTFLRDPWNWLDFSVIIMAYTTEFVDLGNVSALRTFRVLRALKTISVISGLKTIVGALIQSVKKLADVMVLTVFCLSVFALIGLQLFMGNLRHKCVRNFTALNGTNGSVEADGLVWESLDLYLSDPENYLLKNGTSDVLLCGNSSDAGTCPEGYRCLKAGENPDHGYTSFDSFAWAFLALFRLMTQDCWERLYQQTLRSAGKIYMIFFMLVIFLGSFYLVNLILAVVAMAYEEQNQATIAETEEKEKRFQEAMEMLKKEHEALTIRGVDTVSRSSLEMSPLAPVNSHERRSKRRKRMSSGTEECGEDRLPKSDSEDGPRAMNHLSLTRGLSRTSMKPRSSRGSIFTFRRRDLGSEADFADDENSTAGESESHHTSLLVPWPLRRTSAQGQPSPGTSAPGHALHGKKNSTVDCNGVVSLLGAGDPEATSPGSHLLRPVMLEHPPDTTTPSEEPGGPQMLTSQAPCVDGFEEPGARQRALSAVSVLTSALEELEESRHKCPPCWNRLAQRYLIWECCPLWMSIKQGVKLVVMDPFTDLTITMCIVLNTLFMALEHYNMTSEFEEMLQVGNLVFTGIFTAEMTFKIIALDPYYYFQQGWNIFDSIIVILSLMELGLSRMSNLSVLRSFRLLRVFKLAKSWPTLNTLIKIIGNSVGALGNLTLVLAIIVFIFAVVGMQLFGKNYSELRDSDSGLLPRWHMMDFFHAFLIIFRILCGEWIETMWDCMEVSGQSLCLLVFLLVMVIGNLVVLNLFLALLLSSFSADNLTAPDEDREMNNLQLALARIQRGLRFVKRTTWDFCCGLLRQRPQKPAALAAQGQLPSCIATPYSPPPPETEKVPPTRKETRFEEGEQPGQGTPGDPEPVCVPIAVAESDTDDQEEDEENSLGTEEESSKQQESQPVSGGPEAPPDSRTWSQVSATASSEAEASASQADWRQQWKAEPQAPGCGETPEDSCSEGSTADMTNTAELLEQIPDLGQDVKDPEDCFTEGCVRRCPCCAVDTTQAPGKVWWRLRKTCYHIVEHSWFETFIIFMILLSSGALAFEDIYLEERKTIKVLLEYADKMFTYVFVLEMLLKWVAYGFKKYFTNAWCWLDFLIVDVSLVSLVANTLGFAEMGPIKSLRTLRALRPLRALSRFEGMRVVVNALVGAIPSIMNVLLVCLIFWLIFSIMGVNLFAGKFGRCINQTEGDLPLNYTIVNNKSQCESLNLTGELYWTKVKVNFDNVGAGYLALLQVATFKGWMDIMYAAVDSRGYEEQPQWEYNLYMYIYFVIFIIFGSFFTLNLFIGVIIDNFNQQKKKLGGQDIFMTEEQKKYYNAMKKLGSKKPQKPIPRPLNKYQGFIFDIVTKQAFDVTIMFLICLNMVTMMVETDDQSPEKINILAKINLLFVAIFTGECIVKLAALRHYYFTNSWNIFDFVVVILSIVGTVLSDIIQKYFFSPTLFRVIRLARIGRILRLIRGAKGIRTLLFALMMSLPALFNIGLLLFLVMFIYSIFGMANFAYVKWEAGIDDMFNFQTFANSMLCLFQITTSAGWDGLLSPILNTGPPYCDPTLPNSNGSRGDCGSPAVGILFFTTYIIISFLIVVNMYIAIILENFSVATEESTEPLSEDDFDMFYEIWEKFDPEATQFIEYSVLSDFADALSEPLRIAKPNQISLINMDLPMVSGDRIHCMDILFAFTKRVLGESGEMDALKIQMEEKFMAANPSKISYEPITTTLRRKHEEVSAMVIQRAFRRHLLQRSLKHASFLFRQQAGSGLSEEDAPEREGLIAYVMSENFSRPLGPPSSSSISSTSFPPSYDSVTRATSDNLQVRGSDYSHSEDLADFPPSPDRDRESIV
- experimental-details: Patch voltage clamp electrophysiological assay (EP), NaV1.5
- recorded-conditions: read-out: NaV1.5 EP; HEK-293 cells stably expressing human NaV1.5 with β1 subunit, whole-cell patch clamp, holding −60 mV
Structures can show the parent of a compound that is named as a salt.
In plain terms, low IC50, meaning strictly below 400 nM, gives Criterion met, and everything else gives Criterion not met.

Consider O=C(NS(=O)(=O)C1CC1)c1cc(C2CC2)c(OCC2CCN(Cc3cc(Cl)cc(Cl)c3)CC2)cc1F [Example 259] . Does its IC50 lie strictly below 400 nM? Criterion met

Another compound to look at: CCS(=O)(=O)NC(=O)c1cc(C2CC2)c(OCC2CCN([C@@H](COC)c3cc(Cl)cc(Cl)c3)CC2)cc1F (single isomer, unassigned) [Example 168] Criterion met

Now consider O=C(NS(=O)(=O)C1CC1)c1cc(C2CC2)c(CN2CCC(Oc3ncc(C4CC4)cc3Cl)CC2)cc1F [Example 474, hydrochloride] . Criterion not met

Cool, now COC[C@H](c1cc(Cl)cc(Cl)c1)N1CCC(COc2cc(F)c(C(=O)NS(=O)(=O)C3CC3)cc2C2CC2)CC1 (single isomer, unassigned) [Example 165] Criterion met

Ok, now CS(=O)(=O)NC(=O)c1cc(C2CC2)c(CN2CCO[C@H](Cc3cc(Cl)cc(Cl)c3)C2)cc1F [Example 463] Criterion not met

* * *

- assay-target: hNav1.7 (Homo sapiens (Human))
- experimental-details: Tritiated sulfonamide competitive binding to membranes from cells expressing hNav1.7 and the β1 subunit
- recorded-conditions: read-out: Ligand Binding Assay; 100 pM [3H]compound, membranes with hNav1.7 and β1 subunit, 18 h, room temperature
Quick rule for you: IC50 under 6 nM gets criterion met, anything else gets criterion not met.

# count of solved cases: 3
C[C@H](c1cc(Cl)cc(Cl)c1)N1CCC(C#N)(COc2cc(F)c(C(=O)NS(C)(=O)=O)cc2C2CC2)CC1 [Example 597]
criterion not met
CS(=O)(=O)NC(=O)c1cc(C2CC2)c(OCC2(F)CCN(Cc3cc(C(F)(F)F)cc(C4CC4)n3)CC2)cc1F [Example 596]
criterion not met
COC[C@](C)(c1cc(Cl)cc(Cl)c1)N1CCC(COc2cc(F)c(C(=O)NS(C)(=O)=O)cc2C2CC2)CC1 (single isomer, unassigned) [Example 202]
criterion met

Then there is this compound:
Please let me know if CS(=O)(=O)NC(=O)c1cc(C2CC2)c(OCC2CCN(C(=O)c3cccc(Cl)c3)CC2)cc1F [Example 195] shows IC50 below 6 nM. criterion not met

* * *

- assay-target: hNav1.7 (Homo sapiens (Human), UniProt Q15858)
- Sequence (Q15858 other isoform, or with tags, fused parts or gaps): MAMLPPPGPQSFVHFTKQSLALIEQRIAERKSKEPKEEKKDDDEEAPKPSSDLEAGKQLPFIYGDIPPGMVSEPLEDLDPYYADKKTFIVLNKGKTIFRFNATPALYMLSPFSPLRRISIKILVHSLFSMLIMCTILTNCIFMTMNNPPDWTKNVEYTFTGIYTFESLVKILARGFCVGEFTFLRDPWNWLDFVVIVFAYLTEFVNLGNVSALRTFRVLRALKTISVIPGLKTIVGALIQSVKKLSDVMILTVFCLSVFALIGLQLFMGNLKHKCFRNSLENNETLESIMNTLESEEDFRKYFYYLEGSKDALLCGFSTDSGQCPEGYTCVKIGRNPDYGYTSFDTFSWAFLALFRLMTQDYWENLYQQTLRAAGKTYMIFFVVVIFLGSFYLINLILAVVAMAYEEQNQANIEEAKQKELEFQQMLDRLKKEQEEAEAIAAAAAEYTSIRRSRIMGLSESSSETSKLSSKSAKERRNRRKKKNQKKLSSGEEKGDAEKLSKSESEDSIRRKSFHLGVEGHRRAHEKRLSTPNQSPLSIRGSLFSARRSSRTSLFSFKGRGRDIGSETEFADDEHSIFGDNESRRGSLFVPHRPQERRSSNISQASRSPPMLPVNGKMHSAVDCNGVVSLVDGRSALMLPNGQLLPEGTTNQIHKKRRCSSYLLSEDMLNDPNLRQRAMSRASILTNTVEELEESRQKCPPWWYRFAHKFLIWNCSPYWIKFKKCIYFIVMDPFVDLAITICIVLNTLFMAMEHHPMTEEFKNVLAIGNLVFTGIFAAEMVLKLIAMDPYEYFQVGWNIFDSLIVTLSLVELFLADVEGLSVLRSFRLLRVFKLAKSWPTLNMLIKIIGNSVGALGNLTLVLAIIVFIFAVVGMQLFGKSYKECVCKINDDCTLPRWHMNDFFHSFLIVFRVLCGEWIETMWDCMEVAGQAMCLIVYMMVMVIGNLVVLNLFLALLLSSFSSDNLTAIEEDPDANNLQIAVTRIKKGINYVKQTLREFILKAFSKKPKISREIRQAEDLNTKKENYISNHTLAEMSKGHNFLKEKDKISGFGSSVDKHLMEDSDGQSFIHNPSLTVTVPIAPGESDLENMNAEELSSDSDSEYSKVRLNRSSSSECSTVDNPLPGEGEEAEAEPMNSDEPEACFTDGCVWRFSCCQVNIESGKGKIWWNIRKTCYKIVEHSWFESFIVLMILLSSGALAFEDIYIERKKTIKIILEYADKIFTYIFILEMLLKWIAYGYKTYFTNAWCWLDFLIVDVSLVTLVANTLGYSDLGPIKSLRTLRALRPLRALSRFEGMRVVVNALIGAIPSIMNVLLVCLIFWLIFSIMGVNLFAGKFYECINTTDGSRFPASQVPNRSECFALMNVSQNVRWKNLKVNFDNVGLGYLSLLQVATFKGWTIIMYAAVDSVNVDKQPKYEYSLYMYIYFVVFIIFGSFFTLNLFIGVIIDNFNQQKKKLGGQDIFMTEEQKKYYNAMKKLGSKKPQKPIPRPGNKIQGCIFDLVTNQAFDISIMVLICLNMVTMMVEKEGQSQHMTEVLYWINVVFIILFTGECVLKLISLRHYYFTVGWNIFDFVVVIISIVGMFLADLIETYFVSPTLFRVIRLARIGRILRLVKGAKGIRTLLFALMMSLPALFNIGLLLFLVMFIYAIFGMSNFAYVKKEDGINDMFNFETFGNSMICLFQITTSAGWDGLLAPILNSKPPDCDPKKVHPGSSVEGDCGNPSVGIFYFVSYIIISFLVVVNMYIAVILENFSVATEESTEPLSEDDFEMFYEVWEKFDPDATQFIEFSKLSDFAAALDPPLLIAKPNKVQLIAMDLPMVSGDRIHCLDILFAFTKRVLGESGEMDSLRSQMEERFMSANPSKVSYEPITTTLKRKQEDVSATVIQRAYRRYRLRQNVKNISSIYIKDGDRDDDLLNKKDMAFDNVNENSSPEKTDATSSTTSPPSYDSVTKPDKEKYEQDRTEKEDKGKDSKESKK
- Sequence (Q07699 19-218 partner): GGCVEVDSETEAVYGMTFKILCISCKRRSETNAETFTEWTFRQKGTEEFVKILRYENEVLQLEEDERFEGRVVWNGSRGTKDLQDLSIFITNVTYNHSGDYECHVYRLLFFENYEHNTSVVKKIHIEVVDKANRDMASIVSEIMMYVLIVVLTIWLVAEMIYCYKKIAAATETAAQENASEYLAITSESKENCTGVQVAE
- experimental-details: Tritiated sulfonamide competitive binding to membranes from cells expressing hNav1.7 and the β1 subunit
- recorded-conditions: read-out: Ligand Binding Assay; 100 pM [3H]compound, membranes with hNav1.7 and β1 subunit, 18 h, room temperature
Counter-ions that a name gives are not always drawn.
Parameter: IC50. Scope: all listed entries.
Form entry: value (nM) — number only.

Examples with answers:
COc1ccc(CN2CCC[C@@H](Oc3cc(F)c(C(=O)NS(C)(=O)=O)cc3C3CC3)C2)c(Cl)c1 [Example 432, trifluoroacetic acid salt]
3.3
CCS(=O)(=O)NC(=O)c1cc(C2CC2)c(OCC2CCN(Cc3cc(Cl)cc(Cl)c3)CC2)cc1F
5.1
CS(=O)(=O)NC(=O)c1cc(C2CC2)c(O[C@@H]2CCCN(Cc3ccc(S(C)(=O)=O)cc3Cl)C2)cc1F [Example 441, trifluoroacetic acid salt]
138
CC1(COc2cc(F)c(C(=O)NS(C)(=O)=O)cc2C2CC2)CN(C(c2ccccc2)c2ccccc2)C1
6.4
COC(C)(C)[C@H](c1cc(Cl)cc(Cl)c1)N1CCC(COc2cc(F)c(C(=O)NS(C)(=O)=O)cc2C2CC2)CC1 (single isomer, unassigned)
1.8
O=C(NS(=O)(=O)C1CC1)c1cc(C2CC2)c(CN2CCO[C@H](Cc3ccc(F)cc3Cl)C2)cc1F [Example 467, trifluoroacetic acid salt]
4.3
CCS(=O)(=O)NC(=O)c1cc(C2CC2)c(OCC2CCN([C@H](C)c3ccc(F)cc3Cl)CC2)cc1F (single isomer, unassigned)
7.7
O=C(NS(=O)(=O)C1CC1)c1cc(C2CC2)c(O[C@@H]2CCCN(c3ccc(C(F)(F)F)cn3)C2)cc1F [Example 491, trifluoroacetic acid salt]
28.3

Moving on to the next compound.
Need IC50 of O=C(NS(=O)(=O)N1CCC1)c1cc(C2CC2)c(CN2CCO[C@H](Cc3cc(Cl)cc(Cl)c3)C2)cc1F [Example 465, trifluoroacetic acid salt] , thanks. 12.8

* * *

Below, each entry is listed with its recorded IC50.
- assay-target: hNav1.7 (Homo sapiens (Human), UniProt Q15858)
- experimental-details: Tritiated sulfonamide competitive binding to membranes from cells expressing hNav1.7 and the β1 subunit
- recorded-conditions: read-out: Ligand Binding Assay; 100 pM [3H]compound, membranes with hNav1.7 and β1 subunit, 18 h, room temperature
Counter-ions that a name gives are not always drawn.
Enter the number, and then the unit.

See these solved cases before continuing.
C[C@@H](c1cc(Cl)cc(Cl)c1)N1CCC(F)(COc2cc(F)c(C(=O)NS(C)(=O)=O)cc2C2CC2)CC1 [Example 349, trifluoroacetic acid salt]
4 nM
CS(=O)(=O)NC(=O)c1cc(C2CC2)c(OCC2CCN(Cc3cc(F)c(Cl)cc3Cl)CC2)cc1F [Example 453, trifluoroacetic acid salt]
3 nM

Consider the record given below.
I'd like to know its IC50. The compound in question is CC1(COc2cc(F)c(C(=O)NS(=O)(=O)C3CC3)cc2C2CC2)CN(c2ncc(C(F)(F)F)cc2Cl)C1 [Example 481] 3.1 nM

* * *

- assay-target: hNav1.7 (Homo sapiens (Human), UniProt Q15858)
- experimental-details: Tritiated sulfonamide competitive binding to membranes from cells expressing hNav1.7 and the β1 subunit;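 further: Filter-bound radioactivity counted by liquid scintillation, nonspecific binding defined with excess unlabelled ligand, IC50 fitted to percent inhibition of specific binding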
- recorded-conditions: read-out: Ligand Binding Assay; 100 pM [3H]compound, membranes with hNav1.7 and β1 subunit, 18 h, room temperature
pIC50: −log10 of the molar value. Where a name gives a salt, the structure may show the parent alone.
If the reported pIC50 equals or exceeds 8, assign 1 (yes). If not, assign 0 (no).

Below are worked cases with known answers.
O=C(NS(=O)(=O)N1CCC1)c1cc(C2CC2)c(OCC2CC3CCC(C2)N3Cc2ccccc2)cc1F (stereo not drawn)
0 (no)
COC[C@@H](c1ccc(F)c(C(F)(F)F)c1)N1CCC(COc2cc(F)c(C(=O)NS(C)(=O)=O)cc2C2CC2)CC1 (single isomer, unassigned)
1 (yes)
COC[C@H](c1ccc(F)c(C(F)(F)F)c1)N1CCC(COc2cc(F)c(C(=O)NS(C)(=O)=O)cc2C2CC2)CC1 (single isomer, unassigned)
1 (yes)
C[C@@H](c1cc(Cl)cc(Cl)c1)N1CC(COc2cc(F)c(C(=O)NS(C)(=O)=O)cc2C2CC2)C1
0 (no)
COC[C@@H](c1ccc(Cl)cc1Cl)N1CCC(COc2cc(F)c(C(=O)NS(C)(=O)=O)cc2C2CC2)CC1
1 (yes)
C[C@H](c1ccccc1)N1CC(COc2cc(F)c(C(=O)NS(C)(=O)=O)cc2C2CC2)C1
0 (no)
CS(=O)(=O)NC(=O)c1cc(C2CC2)c(CN2CCO[C@H](Cc3ccc(Cl)c(Cl)c3)C2)cc1F
1 (yes)
CS(=O)(=O)NC(=O)c1cc(C2CC2)c(OCC2CCN([C@@H]3c4ccccc4C[C@@H]3O)CC2)cc1F
0 (no)

Does the reported pIC50 for CS(=O)(=O)NC(=O)c1cc(C2CC2)c(OCC2(C#N)CCN(Cc3cc(C(F)(F)F)cc(Cl)c3F)CC2)cc1F fall at or above the 8 mark? 0 (no)

// next record CC1(COc2cc(F)c(C(=O)NS(C)(=O)=O)cc2C2CC2)CCN(Cc2cc(Cl)cc(Cl)c2)CC1 1 (yes)

And then C[C@H](c1ccc(Cl)cc1Cl)N1CCC(COc2cc(F)c(C(=O)NS(C)(=O)=O)cc2C2CC2)CC1 , what is it? 1 (yes)

How about this compound: CS(=O)(=O)NC(=O)c1cc(C2CC2)c(OCC2CCN(Cc3cc(Cl)c(F)c(Cl)c3)CC2)cc1F [Example 454, trifluoroacetic acid salt] 1 (yes)
